- target_entity: T1, TGFβ2 (transforming growth factor beta 2) (Homo sapiens, UniProt P61812 SEQ:1-112)
- T1 sequence: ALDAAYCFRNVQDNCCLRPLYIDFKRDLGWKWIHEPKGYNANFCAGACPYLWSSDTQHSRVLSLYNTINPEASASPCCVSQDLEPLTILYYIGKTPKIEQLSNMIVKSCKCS
- method: cell_activity; mink lung epithelial cell proliferation
- protocol_conditions: chain copies: 2 (homodimer, stated)
outcome_measure: pKi
// returns pKi (minus log10 of molar concentration), number only

GET /values?readout=pKi&item= 21a-21 (ssRNA, 2'-F C and U; 2'-OH A and G) RNA: GGGAGGACGAUGCGGUUCAGGAGGUUAUUACAGAGUCUGUAUAGCUGUACUCCCCAGACGACUCGCCCGA 8.00

Now try 21a-4 (ssRNA, 2'-F C and U; 2'-OH A and G) RNA: GGGAGGACGAUGCGGCGUUGUUUAGUCGUAUGUAUAUACUAAGUCCGCUUGUCCCCAGACGACUCGCCCGA . 7.52
